Biological target: Histone-lysine N-methyltransferase EHMT1 (Homo sapiens)
Sequence (Q9H9B1 whole entry): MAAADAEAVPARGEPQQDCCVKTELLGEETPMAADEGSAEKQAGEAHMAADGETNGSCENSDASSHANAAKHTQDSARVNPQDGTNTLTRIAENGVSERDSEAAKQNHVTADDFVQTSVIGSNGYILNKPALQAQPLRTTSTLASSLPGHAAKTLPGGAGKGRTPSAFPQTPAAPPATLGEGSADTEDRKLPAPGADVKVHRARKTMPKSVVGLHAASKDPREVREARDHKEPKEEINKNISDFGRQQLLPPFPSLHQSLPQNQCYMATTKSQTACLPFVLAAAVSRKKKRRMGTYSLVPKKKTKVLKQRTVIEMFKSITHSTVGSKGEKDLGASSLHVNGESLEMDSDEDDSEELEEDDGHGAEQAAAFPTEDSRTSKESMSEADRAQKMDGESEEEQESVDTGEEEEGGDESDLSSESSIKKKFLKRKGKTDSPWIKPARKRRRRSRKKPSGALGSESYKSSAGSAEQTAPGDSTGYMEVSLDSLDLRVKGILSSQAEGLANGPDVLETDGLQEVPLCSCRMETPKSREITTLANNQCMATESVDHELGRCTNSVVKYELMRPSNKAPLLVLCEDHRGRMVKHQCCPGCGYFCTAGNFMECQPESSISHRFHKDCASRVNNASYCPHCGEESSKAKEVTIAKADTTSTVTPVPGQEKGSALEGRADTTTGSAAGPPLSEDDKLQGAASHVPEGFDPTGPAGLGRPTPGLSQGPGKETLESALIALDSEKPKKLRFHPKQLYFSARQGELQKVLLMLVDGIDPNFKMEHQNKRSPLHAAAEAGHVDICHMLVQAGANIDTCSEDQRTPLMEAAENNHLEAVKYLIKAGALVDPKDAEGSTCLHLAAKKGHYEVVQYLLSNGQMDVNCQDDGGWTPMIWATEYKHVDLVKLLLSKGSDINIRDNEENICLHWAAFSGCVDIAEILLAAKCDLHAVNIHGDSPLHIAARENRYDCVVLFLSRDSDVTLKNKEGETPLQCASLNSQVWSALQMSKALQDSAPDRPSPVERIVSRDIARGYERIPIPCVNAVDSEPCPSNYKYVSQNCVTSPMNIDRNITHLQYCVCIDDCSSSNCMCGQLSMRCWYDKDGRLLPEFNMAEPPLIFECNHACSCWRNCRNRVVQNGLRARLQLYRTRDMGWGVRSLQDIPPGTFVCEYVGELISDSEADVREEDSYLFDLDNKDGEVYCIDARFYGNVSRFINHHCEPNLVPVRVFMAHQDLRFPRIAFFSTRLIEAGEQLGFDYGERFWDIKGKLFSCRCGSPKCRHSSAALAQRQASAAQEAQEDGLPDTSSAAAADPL
Assay: Inhibition of recombinant human GLP using histone H3 peptide as substrate after 120 mins in presence of [3H]SAM by radiometric assay
measurementName: IC50 (nM)

compoundSmiles	measurementName	readingQualifier	assayValue
COc1cc2c(NC3CCN(C(C)C)CC3)cc(C3CCCCC3)nc2cc1OCCCN1CCCC1	IC50	=	180
COc1cc2c(NC3CCN(C4CC4)CC3)cc(-c3ccc(C)o3)nc2cc1OCCCN1CCCC1	IC50	>	20000

====

Target: Histone-lysine N-methyltransferase EHMT2 (Homo sapiens)
Sequence (Q96KQ7 whole entry): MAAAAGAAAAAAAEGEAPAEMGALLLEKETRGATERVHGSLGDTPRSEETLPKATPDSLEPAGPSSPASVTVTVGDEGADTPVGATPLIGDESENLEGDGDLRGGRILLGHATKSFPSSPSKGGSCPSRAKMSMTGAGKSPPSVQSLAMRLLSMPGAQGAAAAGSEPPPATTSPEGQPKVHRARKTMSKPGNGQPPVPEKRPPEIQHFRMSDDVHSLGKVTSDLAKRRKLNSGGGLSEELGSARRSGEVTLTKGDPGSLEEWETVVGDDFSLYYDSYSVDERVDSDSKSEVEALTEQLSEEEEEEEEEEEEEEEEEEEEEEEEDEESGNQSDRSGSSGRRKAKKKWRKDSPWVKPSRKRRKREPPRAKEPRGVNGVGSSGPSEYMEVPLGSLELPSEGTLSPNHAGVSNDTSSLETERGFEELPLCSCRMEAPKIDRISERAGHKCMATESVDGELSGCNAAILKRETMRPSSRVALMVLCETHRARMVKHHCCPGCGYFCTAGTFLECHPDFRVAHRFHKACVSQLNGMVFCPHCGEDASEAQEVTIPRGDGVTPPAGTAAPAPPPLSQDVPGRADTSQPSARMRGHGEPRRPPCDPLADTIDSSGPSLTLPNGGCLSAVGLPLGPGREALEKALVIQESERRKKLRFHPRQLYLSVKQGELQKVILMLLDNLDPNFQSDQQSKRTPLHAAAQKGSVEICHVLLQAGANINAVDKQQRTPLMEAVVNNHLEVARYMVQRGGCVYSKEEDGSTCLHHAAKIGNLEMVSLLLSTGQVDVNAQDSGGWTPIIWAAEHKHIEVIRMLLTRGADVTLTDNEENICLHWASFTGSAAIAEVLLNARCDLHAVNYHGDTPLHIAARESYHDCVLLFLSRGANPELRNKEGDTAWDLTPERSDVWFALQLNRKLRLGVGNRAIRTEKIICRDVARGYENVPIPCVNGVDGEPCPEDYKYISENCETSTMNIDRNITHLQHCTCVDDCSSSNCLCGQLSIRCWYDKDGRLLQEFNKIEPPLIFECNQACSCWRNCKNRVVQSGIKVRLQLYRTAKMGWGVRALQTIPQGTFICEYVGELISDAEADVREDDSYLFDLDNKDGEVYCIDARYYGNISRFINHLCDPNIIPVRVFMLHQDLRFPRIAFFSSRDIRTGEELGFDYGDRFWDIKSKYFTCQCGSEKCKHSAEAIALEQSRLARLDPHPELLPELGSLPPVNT
Experiment: Inhibition of human G9a using biotinylated-H3K9 peptide as substrate after 1 hr in presence of SAM by TR-FRET assay
measurementName: IC50 (nM)

molecule	uom	readingQualifier	assayValue
Cc1cc(Nc2ccc(NC(=O)c3ccc(Nc4ccnc5ccccc45)cc3)cc2)nc(N)n1	nM	>	10000
COc1cc2c(NC3CCN(C)CC3)cc(N3CCN(C)CC3)nc2cc1OCCCN1CCCC1	nM	=	42
COc1cc2c(NC3CCN(C)CC3)cc(-c3ccc(C)s3)nc2cc1OCCCN1CCCC1	nM	=	43
CCNCc1ccc(-c2cc(NC3CCN(C)CC3)c3cc(OC)c(OCCCN4CCCC4)cc3n2)o1	nM	=	48
COc1cc(NC2CCN(C)CC2)c2cc(OC)c(OCCCN3CCCC3)cc2n1	nM	=	136
COc1cc2c(NC3CCN(C)CC3)cc(C3CCC(C)O3)nc2cc1OCCCN1CCCC1 (configuration not stated)	nM	=	27
COc1cc2c(NC3CCN(C)CC3)cc(-c3cccnc3)nc2cc1OCCCN1CCCC1	nM	=	40
COc1cc2c(NC3CCN(C)CC3)cc(-c3cc[nH]c(=O)c3)nc2cc1OCCCN1CCCC1	nM	=	142
COc1cc2c(NC3CCN(C(C)C)CC3)cc(-c3ccc(C)o3)nc2cc1OCCCN1CCCC1	nM	=	3
COc1cc2c(NC3CCN(C)CC3)cc(-c3ccc(C#N)o3)nc2cc1OCCCN1CCCC1	nM	=	264
COc1cc2c(NC3CCN(C)CC3)cc(C3=CCCCC3)nc2cc1OCCCN1CCCC1	nM	=	6
CCc1ccc(-c2cc(NC3CCN(C(C)C)CC3)c3cc(OC)c(OCCCN4CCCC4)cc3n2)o1	nM	=	3
COc1cc2c(NC3CCN(C)CC3)cc(-c3ccc(C)[nH]3)nc2cc1OCCCN1CCCC1	nM	=	0.5
COc1cc2c(NC3CCN(C)CC3)cc(-c3ccn(C)n3)nc2cc1OCCCN1CCCC1	nM	=	44
COc1cc2c(NC3CCN(C)CC3)cc(C3CCCCC3)nc2cc1OCCCN1CCCC1	nM	=	2
COc1cc2c(NC3CCN(C)CC3)cc(-c3cc4ccccc4o3)nc2cc1OCCCN1CCCC1	nM	=	3140
COc1cc2c(NC3CCN(C)CC3)cc(C3CCOCC3)nc2cc1OCCCN1CCCC1	nM	=	17
COc1cc2c(NC3CCN(C(C)C)CC3)cc(C3CCCCC3)nc2cc1OCCCN1CCCC1	nM	=	0.7
COc1cc2c(NC3CCN(C)CC3)nc(-c3ccc(C)o3)nc2cc1OCCCN1CCCC1	nM	=	336
COc1cc2c(NC3CCN(C)CC3)cc(C3=CCOCC3)nc2cc1OCCCN1CCCC1	nM	=	12
COc1cc2c(NC3CCN(C)CC3)cc(-c3ccc(CO)o3)nc2cc1OCCCN1CCCC1	nM	=	15
COc1cc2c(NC3CCN(C)CC3)cc(-c3ccccc3)nc2cc1OCCCN1CCCC1	nM	=	15
CCc1ccc(-c2cc(NC3CCN(C4CC4)CC3)c3cc(OC)c(OCCCN4CCCC4)cc3n2)o1	nM	=	24
COc1cc2c(NC3CCN(C)CC3)cc(-c3ccnn3C)nc2cc1OCCCN1CCCC1	nM	=	1080
COc1cc2c(NC3CCN(C)CC3)cc(-c3ccccc3C)nc2cc1OCCCN1CCCC1	nM	=	52
COc1cc2c(NC3CCN(C)CC3)cc(-c3ccoc3)nc2cc1OCCCN1CCCC1	nM	=	7
COc1cc2c(NC3CCN(C)CC3)cc(-c3ccc(-c4ccccc4)o3)nc2cc1OCCCN1CCCC1	nM	=	2720
COc1cc2c(NC3CCN(C)CC3)cc(C(F)(F)F)nc2cc1OCCCN1CCCC1	nM	=	637
COc1cc2c(NC3CCN(C)CC3)cc(C)nc2cc1OCCCN1CCCC1	nM	=	6
COc1cc2c(NC3CCN(C)CC3)cc(-c3ccc(CN(C)C)o3)nc2cc1OCCCN1CCCC1	nM	=	148
COc1cc2c(NC3CCN(C4CC4)CC3)cc(-c3ccc(C)o3)nc2cc1OCCCN1CCCC1	nM	=	22
COc1cc2c(NC3CCNCC3)cc(-c3ccc(C)o3)nc2cc1OCCCN1CCCC1	nM	=	6
